For each record, write down the corresponding pIC50.
- Tgt: EGFR (human), P00533 [WT]
- Sequence (P00533 whole entry, looked up): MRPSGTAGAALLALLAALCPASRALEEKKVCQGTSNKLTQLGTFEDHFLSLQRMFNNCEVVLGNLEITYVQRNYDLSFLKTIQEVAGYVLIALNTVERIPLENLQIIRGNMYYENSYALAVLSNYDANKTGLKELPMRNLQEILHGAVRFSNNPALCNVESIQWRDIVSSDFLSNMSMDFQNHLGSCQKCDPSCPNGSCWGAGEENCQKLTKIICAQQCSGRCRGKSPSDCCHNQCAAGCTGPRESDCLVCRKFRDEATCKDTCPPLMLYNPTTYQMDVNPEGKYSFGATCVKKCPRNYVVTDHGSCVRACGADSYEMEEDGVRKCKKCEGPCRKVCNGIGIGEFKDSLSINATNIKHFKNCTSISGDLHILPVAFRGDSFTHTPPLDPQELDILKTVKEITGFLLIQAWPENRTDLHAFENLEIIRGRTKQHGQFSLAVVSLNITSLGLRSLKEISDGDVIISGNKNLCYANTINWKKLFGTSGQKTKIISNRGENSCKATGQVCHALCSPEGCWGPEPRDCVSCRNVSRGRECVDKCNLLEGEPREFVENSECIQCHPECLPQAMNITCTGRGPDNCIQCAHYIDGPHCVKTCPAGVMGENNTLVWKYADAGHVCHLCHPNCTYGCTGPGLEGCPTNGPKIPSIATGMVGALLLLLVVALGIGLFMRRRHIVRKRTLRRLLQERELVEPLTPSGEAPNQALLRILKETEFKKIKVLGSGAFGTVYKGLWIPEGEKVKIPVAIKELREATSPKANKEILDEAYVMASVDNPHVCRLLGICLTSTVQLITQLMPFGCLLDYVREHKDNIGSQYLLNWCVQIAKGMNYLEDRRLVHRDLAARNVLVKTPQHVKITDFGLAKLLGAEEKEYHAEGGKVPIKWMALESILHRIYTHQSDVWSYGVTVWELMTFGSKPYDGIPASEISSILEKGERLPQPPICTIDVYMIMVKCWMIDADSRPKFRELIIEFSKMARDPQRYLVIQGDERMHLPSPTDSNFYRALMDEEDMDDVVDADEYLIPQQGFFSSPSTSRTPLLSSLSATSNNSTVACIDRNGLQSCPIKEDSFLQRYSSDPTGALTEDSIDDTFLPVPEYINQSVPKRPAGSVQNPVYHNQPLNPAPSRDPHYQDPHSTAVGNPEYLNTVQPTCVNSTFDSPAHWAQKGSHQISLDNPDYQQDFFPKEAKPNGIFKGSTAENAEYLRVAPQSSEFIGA
pIC50: −log10 of the molar value.

Check out these entries, answers already filled in.
C=CC(=O)Nc1cccc(Oc2nc(Nc3cccc(OC)c3)ncc2C(N)=O)c1; ≥ 8.00
C=CC(=O)N1CCC[C@@H](Nc2nc(Nc3cccc(Cl)c3)ncc2F)C1; ≥ 8.00
C=CC(=O)Nc1cccc(Oc2nc(Nc3cccc(OC)c3)ncc2C(=O)NC2CC2)c1; ≥ 8.00
C=CC(=O)Nc1cccc(Oc2nc(Nc3cccc(OCCN4CCCC4=O)c3)ncc2F)c1; ≥ 8.00
Cc1cnc(Nc2cccc(S(N)(=O)=O)c2)nc1Nc1ccc2c(c1)CCN(C(=O)CCl)C2; ≥ 8.00

Give pIC50 for all compounds that follow.
1. Cc1cccc(Nc2nc(Nc3cccc(NC(=O)/C=C/CN(C)C)c3)ncc2C)c1
2. C=CC(=O)Nc1cccc(Nc2nc(Nc3cccc(OCCN(C)C)c3)ncc2F)c1
3. C=CC(=O)Nc1cccc(Nc2nc(Nc3ccc(OCC(O)CO)cc3)ncc2F)c1 (stereo not given)
4. C=CC(=O)Nc1cccc(Nc2nc(Nc3ccc(OCC(O)CO)c(F)c3)ncc2F)c1 (stereo not given)
5. C=CC(=O)Nc1cccc(Nc2nc(Nc3ccc4c(c3)CC(=O)N4)ncc2F)c1
6. C=CC(=O)Nc1cccc(Nc2nc(Nc3cccc(OCC4CCN(C)CC4)c3)ncc2F)c1
7. C=CC(=O)Nc1cccc(Oc2nc(Nc3cccc(OCCCS(C)(=O)=O)c3)ncc2F)c1

≥ 8.00
≥ 8.00
≥ 8.00
≥ 8.00
≥ 8.00
≥ 8.00
≥ 8.00

// each compound listed below needs its pIC50
1. C=CC(=O)Nc1cccc(Nc2nc(Nc3ccc4[nH]ncc4c3)ncc2F)c1
2. C=CC(=O)Nc1cccc(Oc2nc(Nc3cccc(OCCCN4CCCC4=O)c3)ncc2F)c1

1: ≥ 8.00; 2: ≥ 8.00

Report pIC50 for each item below.
1. C=CC(=O)Nc1cccc(Nc2nc(Nc3cccc(OCC(O)CO)c3)ncc2F)c1 (stereo not given)
2. C=CC(=O)Nc1cccc(Nc2nc(Nc3ccccc3)ncc2C)c1
3. C=CC(=O)Nc1cccc(Nc2nc(Nc3cccc(S(N)(=O)=O)c3)ncc2F)c1
4. C=CC(=O)Nc1cccc(Oc2nc(Nc3ccc(OC)nc3)ncc2C(C)=O)c1
5. C=CC(=O)Nc1cccc(Nc2ncc(C)c(Nc3ccccc3)n2)c1
6. C=CC(=O)Nc1cccc(Oc2nc(Nc3ccc(OC)nc3)ncc2C(=O)Nc2ccccc2)c1

≥ 8.00
≥ 8.00
≥ 8.00
≥ 8.00
≥ 8.00
≥ 8.00

---

- Tgt: EGFR (human)
Property name: pIC50
One number for each entry, as −log10 of the molar value.

Which pIC50 reading was recorded for the molecule `C=CC(=O)Nc1ccc(C)c(Nc2nccc(-c3cccnc3)n2)c1` ?
8.65
